- Protocol Text: in vivo
- Condition Set: male, CD-1, mouse, po, 30 mg/kg
Reported Endpoint: AUC(0-t)
Don't forget the unit after the number, please.

C[C@@H]1Oc2nc(-c3cc(N)cc(Cl)c3C(F)(F)F)c(F)c3nc(OC[C@@]45CCCN4CC(=C(F)F)C5)nc(c23)N2C[C@H]3CC[C@H](N3)[C@@H]12    2440 ng·h/mL

-- ask Which AUC(0-t) reading was recorded for the compound `[2H]C([2H])([2H])[C@@H]1Oc2nc(-c3cc(N)cc(Cl)c3C(F)(F)F)c(F)c3nc(OC[C@@]45CCCN4CC(=C(F)F)C5)nc(c23)N2C[C@H]3CC[C@H](N3)[C@@H]12` ?
-- reply 3250 ng·h/mL

----------
- Protocol Text: Pharmacokinetic evaluation test in mice
- Condition Set: male, CD-1, mouse, plasma, po, 10 mg/kg
Reported Endpoint: AUC(0-t) (ng·h/mL)
// return numeric value only (unit: ng·h/mL, not printed)

-- ask Could you tell me which AUC(0-t) is on file for `CCc1cccc2cc(O)cc(-c3nc4c5c(nc(OC[C@@]67CCCN6C[C@H](F)C7)nc5c3F)N3C[C@H]5CC[C@H](N5)[C@H]3CO4)c12` ?
-- reply 42.1

----------
- Protocol Text: Pharmacokinetic evaluation test in mice
- Condition Set: male, CD-1, mouse, plasma, po, 10 mg/kg
Reported Endpoint: bioavailability
Reply with the number and its unit after it.

-- ask Could you share which bioavailability value was measured for `CCc1cccc2cc(O)cc(-c3nc4c5c(nc(OC[C@@]67CCCN6C[C@H](F)C7)nc5c3F)N3C[C@H]5CC[C@H](N5)[C@H]3CO4)c12` ?
-- reply 2.33%

----------
Overview of reported bioavailability across a group of molecules:
- Protocol Text: in vivo
- Condition Set: male, CD-1, mouse, po, 30 mg/kg
Unit % implied. Number only.

[2H]C([2H])([2H])[C@@H]1Oc2nc(-c3cc(N)cc(Cl)c3C(F)(F)F)c(F)c3nc(OC[C@@]45CCCN4CC(=C(F)F)C5)nc(c23)N2C[C@H]3CC[C@H](N3)[C@@H]12 [Z1054]    29.4

Please find the next molecule below.
-- ask State the recorded bioavailability for this entry: C[C@@H]1Oc2nc(-c3cc(N)cc(Cl)c3C(F)(F)F)c(F)c3nc(OC[C@@]45CCCN4CC(=C(F)F)C5)nc(c23)N2C[C@H]3CC[C@H](N3)[C@@H]12 [Z1084]
-- reply 20.7
